Tested on: hyperglycemic male KK mice
EXPERIMENTAL DETAILS: Action in depressing blood glucose (Method 1)
Format: in vivo
MEASUREMENT PARAMETERS: Mus musculus, po, 72 h, compound admixed with powder feed at 0.01% (ca. 10 mg/kg/day) for three days, plasma glucose vs control group, read-out: Rate of hypoglycemic activity (%) (blood glucose depression rate)
Description: Action in Depressing Blood Glucose (Method 1) Each compound, admixed with powder feed F-2 (Funabashi Farm) was administered to hyperglycemic male KK mice each having a body weight of 40 g or more at a rate of 0.01% (ca. 10 mg/kg/day) for three days. Meanwhile, mice of a control group were fed with the powder feed only. […] The blood glucose in the plasma thus obtained was determined using Glucoloader F (Product of A & T Co., Ltd.). […]
For each of the molecules below, state its inhibition in vivo at 10 mg/kg/day.
One number for each entry, in %.

Dear colleague, could you send me inhibition in vivo at 10 mg/kg/day for each of the items below? Thanks.
1. CCCCC(Cc1ccc(OCCCNC(=O)c2ccc(-c3ccccn3)cc2)cc1)C(=O)O (centres unmarked) [Example 70]
2. CCCCC(Cc1ccc(OCCNC(=O)c2ccc(OC)nc2)cc1)C(=O)O (centres unmarked) [Example 52]
3. CC(C)c1ccc(OC(Cc2ccc(OCCNC(=O)c3ccc(-c4ccc([N+](=O)[O-])cn4)cc3)cc2)C(=O)O)cc1 (centres unmarked) [Example 109]

Found:
[23, 20, 38]

Dear colleague, could you send me inhibition in vivo at 10 mg/kg/day for each of the items below? Thanks.
1. O=C(NCCOc1ccc(CC(Oc2ccc(F)c(F)c2)C(=O)O)cc1)c1ccc(-c2ccccn2)cc1 (centres unmarked) [Example 141]
2. CC(C)c1ccc(OC(Cc2ccc(OCCNC(=O)c3ccc(OCC(F)(F)C(F)F)nc3)cc2)C(=O)O)cc1 (centres unmarked) [Example 103]
3. O=C(NCCOc1ccc(CC(Oc2ccccc2)C(=O)O)cc1)c1ccc(-c2ccc(Cl)cc2)cc1 (centres unmarked) [Example 80]
4. O=C(NCCOc1ccc(CC(Oc2ccc(Cl)cc2)C(=O)O)cc1)c1ccc(-c2ccccn2)cc1 (centres unmarked) [Example 121]
5. O=C(NCCOc1ccc(CC(Oc2cc(F)cc(F)c2)C(=O)O)cc1)c1ccc(-c2ccccn2)cc1 (centres unmarked) [Example 139]

Found:
1: 27; 2: 48; 3: 50; 4: 60; 5: 23

----------
Tested on: hyperglycemic male KK mice
EXPERIMENTAL DETAILS: Action in depressing blood glucose (Method 1)
Assay type: in vivo
MEASUREMENT PARAMETERS: Mus musculus, po, 72 h, compound admixed with powder feed at 0.01% (ca. 10 mg/kg/day) for three days, plasma glucose vs control group, read-out: Rate of hypoglycemic activity (%) (blood glucose depression rate)
For each of the molecules below, state its inhibition in vivo at 10 mg/kg/day.
Numbers only, in %.

These recorded examples may help you get a feel for the data.
[[record]]
molecule = "COc1ccc(OC(Cc2ccc(OCCNC(=O)c3ccc(-c4ccccn4)cc3)cc2)C(=O)O)cc1 (centres unmarked) [Example 125]"
endpoint_name = "inhibition in vivo at 10 mg/kg/day"
quantity_unit = "%"
recorded_number = 54

[[record]]
molecule = "O=C(NCCOc1ccc(CC(Oc2ccc(F)cc2)C(=O)O)cc1)c1ccc(-c2ccccn2)cc1 (centres unmarked) [Example 119]"
endpoint_name = "inhibition in vivo at 10 mg/kg/day"
quantity_unit = "%"
recorded_number = 49

[[record]]
molecule = "CCCCC(Cc1ccc(OCCNC(=O)c2ccc(-c3ccc(C=O)cc3)cc2)cc1)C(=O)O (centres unmarked) [Example 27]"
endpoint_name = "inhibition in vivo at 10 mg/kg/day"
quantity_unit = "%"
recorded_number = 35

[[record]]
molecule = "CC(C)(C)c1ccc(OC(Cc2ccc(OCCNC(=O)c3ccc(-c4ccccn4)cc3)cc2)C(=O)O)cc1 (centres unmarked) [Example 117]"
endpoint_name = "inhibition in vivo at 10 mg/kg/day"
quantity_unit = "%"
recorded_number = 70

[[record]]
molecule = "O=C(NCCOc1ccc(CC(Oc2ccccc2)C(=O)O)cc1)c1ccc(-c2ccccc2)cc1 (centres unmarked) [Example 76]"
endpoint_name = "inhibition in vivo at 10 mg/kg/day"
quantity_unit = "%"
recorded_number = 50

[[record]]
molecule = "CC(C)c1ccc(OC(C)(Cc2ccc(OCCNC(=O)c3ccc(-c4ccccn4)cc3)cc2)C(=O)O)cc1 (centres unmarked) [Example 18]"
endpoint_name = "inhibition in vivo at 10 mg/kg/day"
quantity_unit = "%"
recorded_number = 68


Dear colleague, could you send me inhibition in vivo at 10 mg/kg/day for each of the items below? Thanks.
1. CCCCC(Cc1ccc(OCCNC(=O)c2ccc(-c3ccccn3)cc2)cc1)C(=O)O (centres unmarked) [Example 12]
2. CCCC(Cc1ccc(OCCNC(=O)c2ccc(-c3ccccn3)cc2)cc1)C(=O)O (centres unmarked) [Example 74]

Found:
42
60
